experiment: folding stability dG unfold (combined trypsin and chymotrypsin); higher = more stable
Measurement Type: folding stability dG unfold (kcal/mol)
All answers are understood in kcal/mol, so give the number only.

Solved cases (3 shown):
SPYTVDSVSEDPSRNSTTVLNFPDGTTVTVTYDPSNPSLATVTVRPADGTTETTTVPLDEPFVVNLTVNPSA [r9_875_JUSTAS]: 1.02
SMTLTETKVLTTETLSGEEFAKRSGVPVEEIRKSGVKYNVTVTPVEVTYYDPETGKTYKRTSTTVTITPESA [r9_382_JUSTAS]: 0.686
SAGGSAPGWYPITYEFEDNNKEIKIEVYYPKEDPMVGVDIEDPDGKVIFTIWFPADNAEKALKEILSAGGSA [r15_940_TrROS]: 1.39

Kindly review the next sequence as well.
Tell me the measured folding stability dG unfold of SAGGMSKEELAKKLAKELAEKLGIKEIKEIKIEKKKDKVKITIVFKENKKIIEIELKDGKIVKIKEKSAGGS [r16_171_TrROS_Hall] , please. 3.26

----------
As shown below, each of these sequences has a reported folding stability dG unfold value.
assay: folding stability dG unfold (combined trypsin and chymotrypsin); higher = more stable

Below, each entry is followed by its recorded folding stability dG unfold result.
SAGGSAGGSSPIVVEEEPDRYVITIPPSQPELVEEVLEKLGLPAEDITRTLIPEGLVRYEVPGSAGGSAGGS [r12_493_JUSTAS]: < -1 kcal/mol
SAGGSSPEELAEKAINEAMEKFGFKEISEIKIQKEDDGVRITIRMPNNGYTIEIDYEDGKITEIQPWSAGGS [r16_171_TrROS]: 1.1 kcal/mol

Need folding stability dG unfold of SAGGSAGPALEIAKALTELYGAEEVTILDVHPDGYVHLHVRAVDYDDGEPVERELDVIFPIAPDDGSAGGSA [r15_646_TrMRF] , thanks. 1.18 kcal/mol

Give its folding stability dG unfold value. Item: SAGGSGMIKTETTVTITFPGGETVSFPATVTYDPETGKTEVEVNLPEAALAELKERAPDAEVNVLLSAGGSA [r2_409_JUSTAS] 1.29 kcal/mol

----------
experiment: folding stability dG unfold (combined trypsin and chymotrypsin); higher = more stable
Measurement Type: folding stability dG unfold

Check out these entries, answers already filled in.
SAGGSAGGSAGGKKKYIVVKVKVEVDENGNVTITLPNGKKITIPKEKVEVKPDGYLVIKLSAGGSAGGSAGG [r7_684_TrROS_Hall]: 2.05 kcal/mol
SAGGSAGGSAGGDEEAIKEAAAAAPKDTTTVPVLLPDGKEVTLEVTWHPDGSRTITVRQSAGGSAGGSAGGS [r10_1017_JUSTAS]: 1.15 kcal/mol
SAGGSAGGSKIKPGEKVEIKLKIKVKDKNGKEKEIELTFSKDMTVEEIKKLLKELEKKGFEIESAGGSAGGS [r20_27_TrROS_Hall]: 2.72 kcal/mol
SAGNVTIRISFYPRKDGWFFRIKVHFDGKPRELMIPPDDSAEDLADELEKKLGADVTDIEVEWMPLEDGSAG [r5_181_TrROS]: 3.88 kcal/mol
SAGKKVVIIEIEEVTNEDGEKEYKIRVLVKDEETGEVTEREITVKEGESIEDLIKKALEEGADEVIIVPSAG [r5_37_TrROS_Hall]: 4.12 kcal/mol
SAGGKITITLPNGAKIEIEEEEVEVDGKTYLVFKAKITNKDGSKYLITVVIDKKTKEIVSISIEKLPSAGGS [r8_492_TrROS_Hall]: > 6 kcal/mol

Next up:
Consider the sequence shown here: SAGGAEQAREILKEWGFEISEVDPKKKTVQVTPPESGMPISIDVDEPGQIKIKIRMNGKPRTFEIPPSAGGS [r16_197_TrROS] What is its recorded folding stability dG unfold? -0.215 kcal/mol

----------
assay: folding stability dG unfold (combined trypsin and chymotrypsin); higher = more stable
Measurement Type: folding stability dG unfold (kcal/mol)
Please reply with the bare figure in kcal/mol and do not write the unit itself.

These solved cases illustrate the format of a correct answer.
SAGGKYEYDPDNGYYRDEDGKMYYPMPPQIPPIEIPIPINLPNGQKLNIPVEFRTIEDALDALKKFFSAGGS [r8_440_TrROS]: 1.01
SAGGSAGGSMKKIKIEVYNKDGSKTELPLSEILKLYDFDAEEIKKFLEKLFPKDVKFKIEIEGSAGGSAGGS [r12_399_TrMRF]: 2.31
SAGGGANIEGVEIYRIPDLDKYLVVVPSPAPEGAEITITVRLPNGPFTKTFVAKYRPLPGNRHVFVGSAGGS [r8_195_TrMRF]: 1.03
SAGFSITVDYEPEKGLWTVTFTSPPSTSPLSPEEVKETAREIAEKQGIKYELIEISREGNTWTMTIKVLSAG [r14_556_JUSTAS]: 5.39
SAMIKVVLPGAKLEKVEVFPDKTVKAVFVAKDHLVEIYFDPETGKALIRVYDGEKEYEFVLDVHPDDVISAG [r14_218_TrMRF]: 4.33

folding stability dG unfold for SAGSVEIKESSLPDSTIITITIPYTSPEEAPERIERLLKELGLSENVQVIEVKYEPSPPVVTVKIKIESAGG [r19_186_JUSTAS] ? 2.99

folding stability dG unfold lookup needed for SASKKPKLIIVDIVIKPEELKKMKPEELIEKILKELGIPKEKDVKIDLFLEPVELDGEEYYIIPALITNSAG [r14_334_TrMRF] , thanks. 1.24

----------
assay: folding stability dG unfold (combined trypsin and chymotrypsin); higher = more stable
Label MET when folding stability dG unfold is at or above 2 kcal/mol; anything below gets NOT MET.

SAGGSAGGKPEVKITLVIEVETEEELKALAEELAALLGAEVEVRVERREDGRLLVTVTITVPAESAGGSAGG [r6_719_TrROS_Hall]: MET

Check the entry SAGGSAGGIKYRVMVHNPESGRWHRIDDIEIDPPDGRIKIRFPGNGKEITIPPGYPIMISPDMLSAGGSAGG [r6_885_TrROS] : does folding stability dG unfold equal or exceed 2 kcal/mol? NOT MET

In plain terms: is recorded folding stability dG unfold at least 2 kcal/mol for SAGGSAMVKTADGKEVKVEKVIPLEEMSLEELKALAEKNNKPILIVDKKTKKVIVLTKEELEKLLKSAGGSA [r15_904_TrROS_Hall] ? NOT MET

----------
assay: folding stability dG unfold from trypsin proteolysis; higher = more stable
Measurement Type: folding stability dG unfold (kcal/mol)
Write the value in kcal/mol as a bare number.

Consider the reported folding stability dG unfold for these sequences:
SAGGSAGGSKITVHRNPPGYYVIRIHGPGPITIMIPPKDADELANKLKDLGFDMKVEVYPLDDSAGGSAGGS [r20_124_TrROS]: 1.23
SAGGSAGGMEVVELTVDELRALLPPGAVLLVYNRKTRKLYEIPVEELEALLKPGDKVRVVVLPPSAGGSAGG [r6_893_TrROS_Hall]: 3.62
SAGGSAGGSAGGSMTLKVTLTPPSGEVVEFEITEEELDKLKEELPEDWSISTEPIPELESAGGSAGGSAGGS [r4_63_JUSTAS]: 2.43
SAGGSAGGSAEELLKAFPNAEIVKYDPETKKFIIKLKDGSYLVVNLETGEIKLVSKEELEKASAGGSAGGSA [r18_381_TrROS_Hall]: 2.66
SAGGSAGGSAGSSLPVLETREEGDLVYLLFPETNLLLVVRRGPGEVEVPSAVRVPPDVPLSAGGSAGGSAGG [r17_30_JUSTAS]: 0.805
SAGGSAMTIYIKNKDGYIIKIEITKIEEIGPNYIKIKMKMEIINKNGEKKEIELELIFKVKNPEELSAGGSA [r15_1035_TrROS_Hall]: 2.54

Look at this sequence and give its reported folding stability dG unfold. SAGGSAGGSAMRINIKLPGVETESVEVDPEKGMITARLKFPEGRKVEISFFPDGNVKIHPVSAGGSAGGSAG [r3_348_TrROS] 1.14

Which folding stability dG unfold value is on record for SAGGSLPLPPGATVETTEVDPANPDRTYKTTTTFTPVPGNTLLATPVVTDPETGTTTTTTTTVPLALGSAGG [r13_268_JUSTAS] ? 0.321

Could you share which folding stability dG unfold value was measured for SAGPFILVKFVTPDGRPLYYVIEIPESEEPEKLTLEQALEVAEAIAKALASKGGFEVKEVKIVSPEEFSAGG [r19_27_TrMRF] ? 3.43

Request the reported folding stability dG unfold associated with SAGPKVKLIKAEFFPDGRLVVYAEVESSNGEPAFAVGVFDPRNPNKAHVKVYNPSTGKVSEFEVTVTPGSAG [r5_345_TrMRF] 2.57

Which folding stability dG unfold reading was recorded for the sequence SAGGSAMIKTSYDPNGKTIYTIPETGAVITVDPSTGKVTVEVDPESQANNPLPEEEVKKLAEEVLKSAGGSA [r15_735_JUSTAS] ? 0.481
